target_under_test: Phosphatidylinositol 4,5-bisphosphate 3-kinase catalytic subunit gamma isoform (Homo sapiens)
Sequence (P48736 whole entry, canonical isoform): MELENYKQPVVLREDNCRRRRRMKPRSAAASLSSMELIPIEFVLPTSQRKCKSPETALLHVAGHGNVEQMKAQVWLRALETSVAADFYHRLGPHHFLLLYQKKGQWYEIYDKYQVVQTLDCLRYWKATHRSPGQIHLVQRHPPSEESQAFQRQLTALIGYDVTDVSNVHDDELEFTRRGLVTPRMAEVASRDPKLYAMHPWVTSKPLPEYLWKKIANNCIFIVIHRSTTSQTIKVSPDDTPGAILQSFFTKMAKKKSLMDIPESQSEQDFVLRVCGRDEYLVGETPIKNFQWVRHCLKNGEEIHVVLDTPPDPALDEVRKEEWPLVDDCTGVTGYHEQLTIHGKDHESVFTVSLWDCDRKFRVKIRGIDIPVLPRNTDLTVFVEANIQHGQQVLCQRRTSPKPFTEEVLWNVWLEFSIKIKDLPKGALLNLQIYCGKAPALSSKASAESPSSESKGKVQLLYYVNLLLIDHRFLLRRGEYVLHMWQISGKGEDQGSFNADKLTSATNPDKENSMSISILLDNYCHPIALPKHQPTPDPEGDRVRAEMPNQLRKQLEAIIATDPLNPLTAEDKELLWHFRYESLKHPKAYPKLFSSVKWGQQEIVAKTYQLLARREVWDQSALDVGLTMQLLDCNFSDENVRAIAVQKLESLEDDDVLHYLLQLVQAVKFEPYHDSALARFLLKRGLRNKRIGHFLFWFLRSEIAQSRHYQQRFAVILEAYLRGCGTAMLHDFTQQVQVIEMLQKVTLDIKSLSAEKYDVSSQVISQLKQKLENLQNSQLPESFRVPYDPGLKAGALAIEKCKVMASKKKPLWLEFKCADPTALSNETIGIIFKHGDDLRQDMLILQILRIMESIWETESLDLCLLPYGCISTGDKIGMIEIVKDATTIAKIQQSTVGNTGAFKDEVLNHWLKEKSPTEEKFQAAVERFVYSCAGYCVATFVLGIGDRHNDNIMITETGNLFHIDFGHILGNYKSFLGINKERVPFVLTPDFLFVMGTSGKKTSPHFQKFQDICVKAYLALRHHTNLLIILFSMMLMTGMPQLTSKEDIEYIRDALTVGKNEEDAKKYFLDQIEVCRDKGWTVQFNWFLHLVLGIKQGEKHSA
experiment_notes: Inhibition of PI3Kgamma (unknown origin) using PIP2 as substrate preincubated for 15 mins followed by substrate addition measured after 60 mins in presence of ATP by HTRF method
pIC50: −log10 of the molar value.
measured_attribute: pIC50

Some compounds with recorded pIC50:
compound	pIC50
Cc1nnc2n1[C@H]1CCN(Cc3cc4nc(-c5cccc6[nH]ncc56)nc(N5CCOCC5)c4s3)C[C@@H]1CC2 (relative stereo)	6.50
Cc1nncn1C1CCN(Cc2cc3nc(-c4cccc(O)c4)nc(N4CCOCC4)c3s2)CC1	6.70
FC(F)(F)c1nnc2n1[C@H]1CCN(Cc3cc4nc(-c5cccc6[nH]ncc56)nc(N5CCOCC5)c4s3)C[C@H]1CC2 (relative stereo)	6.10
FC(F)(F)c1nncn1C1CCN(Cc2cc3nc(-c4cccc5[nH]ccc45)nc(N4CCOCC4)c3s2)CC1	5.50
Oc1cccc(-c2nc(N3CCOCC3)c3sc(CN4CC[C@H]5[C@@H](CCc6nnc(C(F)(F)F)n65)C4)cc3n2)c1 (relative stereo)	6.70

I: Cc1nnc2n1[C@H]1CCN(Cc3cc4nc(-c5cccc6[nH]ncc56)nc(N5CCOCC5)c4s3)C[C@H]1CC2 (relative stereo)
II: FC(F)(F)c1nnc2n1[C@H]1CCN(Cc3cc4nc(-c5cccc6[nH]ccc56)nc(N5CCOCC5)c4s3)C[C@@H]1CC2 (relative stereo)
Data request: Which one would you say has the larger pIC50 value: I , or II ? Write down the label of the entry you select.
Data returned: II
(II: 6.40, I: 5.90)

1: Cc1nnc2n1[C@H]1CCN(Cc3cc4nc(-c5cccc(O)c5)nc(N5CCOCC5)c4s3)C[C@@H]1CC2 (relative stereo)
2: Cc1nncn1C1CCN(Cc2cc3nc(-c4cccc5[nH]ncc45)nc(N4CCOCC4)c3s2)CC1
3: Oc1cccc(-c2nc(N3CCOCC3)c3sc(CN4CCC(n5cnnc5C(F)(F)F)CC4)cc3n2)c1
Data request: Your job: order these 3 records by pIC50, ascending. Put the labels in the order asked and list them.
Data returned: 2, 1, 3

A: FC(F)(F)c1nnc2n1[C@H]1CCN(Cc3cc4nc(-c5cccc6[nH]ncc56)nc(N5CCOCC5)c4s3)C[C@@H]1CC2 (relative stereo)
B: Oc1cccc(-c2nc(N3CCOCC3)c3sc(CN4CC[C@H]5[C@H](CCc6nnc(C(F)(F)F)n65)C4)cc3n2)c1 (relative stereo)
Data request: Which one would you say has the larger pIC50 value: A , or B ? Write down the label of the entry you select.
Data returned: B

I: FC(F)(F)c1nnc2n1[C@H]1CCN(Cc3cc4nc(-c5cccc6[nH]ccc56)nc(N5CCOCC5)c4s3)C[C@H]1CC2 (relative stereo)
II: Cc1nnc2n1[C@H]1CCN(Cc3cc4nc(-c5cccc6[nH]ccc56)nc(N5CCOCC5)c4s3)C[C@H]1CC2 (relative stereo)
Data request: Which one would you say has the larger pIC50 value: I , or II ? Write down the label of the entry you select.
Data returned: I

* * *

target_under_test: Phosphatidylinositol 4,5-bisphosphate 3-kinase catalytic subunit delta isoform (Homo sapiens, UniProt O00329)
Sequence (O00329 whole entry, canonical isoform): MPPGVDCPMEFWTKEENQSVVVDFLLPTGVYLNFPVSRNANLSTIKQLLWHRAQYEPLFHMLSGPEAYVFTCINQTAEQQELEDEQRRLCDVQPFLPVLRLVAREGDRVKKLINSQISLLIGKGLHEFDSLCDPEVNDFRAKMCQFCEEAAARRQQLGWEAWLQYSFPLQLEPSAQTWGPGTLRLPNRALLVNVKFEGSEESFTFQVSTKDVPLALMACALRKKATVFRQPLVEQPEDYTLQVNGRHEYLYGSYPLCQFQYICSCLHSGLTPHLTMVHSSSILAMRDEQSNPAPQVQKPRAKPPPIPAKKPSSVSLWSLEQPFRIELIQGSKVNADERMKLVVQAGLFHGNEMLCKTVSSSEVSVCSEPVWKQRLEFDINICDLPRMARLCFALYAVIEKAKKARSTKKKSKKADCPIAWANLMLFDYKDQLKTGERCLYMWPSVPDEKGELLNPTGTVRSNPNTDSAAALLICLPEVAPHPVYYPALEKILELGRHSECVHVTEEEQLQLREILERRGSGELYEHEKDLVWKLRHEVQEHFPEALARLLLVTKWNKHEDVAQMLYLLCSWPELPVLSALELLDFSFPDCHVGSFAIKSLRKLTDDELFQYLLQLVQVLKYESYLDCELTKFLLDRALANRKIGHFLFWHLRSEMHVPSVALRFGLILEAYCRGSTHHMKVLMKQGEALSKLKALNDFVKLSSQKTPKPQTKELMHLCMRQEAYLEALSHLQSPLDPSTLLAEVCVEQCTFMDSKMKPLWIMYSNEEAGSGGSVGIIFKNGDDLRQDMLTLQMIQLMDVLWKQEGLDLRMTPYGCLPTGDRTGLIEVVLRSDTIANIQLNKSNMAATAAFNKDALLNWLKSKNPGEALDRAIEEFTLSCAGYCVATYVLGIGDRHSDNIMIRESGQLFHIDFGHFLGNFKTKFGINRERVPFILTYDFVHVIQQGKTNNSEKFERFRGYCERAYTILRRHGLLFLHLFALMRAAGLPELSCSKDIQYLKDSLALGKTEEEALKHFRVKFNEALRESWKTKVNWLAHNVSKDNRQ
experiment_notes: Inhibition of PI3Kdelta (unknown origin) using PIP2 as substrate preincubated for 15 mins followed by substrate addition measured after 60 mins in presence of ATP by HTRF method
measured_attribute: IC50 (nM)

Some compounds with recorded IC50:
compound	IC50 (nM)
Cc1nnc2n1[C@H]1CCN(Cc3cc4nc(-c5cccc(O)c5)nc(N5CCOCC5)c4s3)C[C@@H]1CC2 (relative stereo)	0.794
Cc1nnc2n1[C@H]1CCN(Cc3cc4nc(-c5cccc6[nH]ccc56)nc(N5CCOCC5)c4s3)C[C@H]1CC2 (relative stereo)	0.794
FC(F)(F)c1nnc2n1[C@H]1CCN(Cc3cc4nc(-c5cccc6[nH]ccc56)nc(N5CCOCC5)c4s3)C[C@H]1CC2 (relative stereo)	0.794
FC(F)(F)c1nncn1C1CCN(Cc2cc3nc(-c4cccc5[nH]ncc45)nc(N4CCOCC4)c3s2)CC1	20
Oc1cccc(-c2nc(N3CCOCC3)c3sc(CN4CC[C@H]5[C@@H](CCc6nnc(C(F)(F)F)n65)C4)cc3n2)c1 (relative stereo)	1

A: Cc1nnc2n1[C@H]1CCN(Cc3cc4nc(-c5cccc6[nH]ccc56)nc(N5CCOCC5)c4s3)C[C@@H]1CC2 (relative stereo)
B: FC(F)(F)c1nnc2n1[C@H]1CCN(Cc3cc4nc(-c5cccc6[nH]ncc56)nc(N5CCOCC5)c4s3)C[C@H]1CC2 (relative stereo)
C: FC(F)(F)c1nncn1C1CCN(Cc2cc3nc(-c4cccc5[nH]ccc45)nc(N4CCOCC4)c3s2)CC1
D: FC(F)(F)c1nnc2n1[C@H]1CCN(Cc3cc4nc(-c5cccc6[nH]ncc56)nc(N5CCOCC5)c4s3)C[C@@H]1CC2 (relative stereo)
E: Oc1cccc(-c2nc(N3CCOCC3)c3sc(CN4CC[C@H]5[C@H](CCc6nnc(C(F)(F)F)n65)C4)cc3n2)c1 (relative stereo)
Data request: Order these by IC50, descending, and give the full ranking. Put the labels in the order asked and list them.
Data returned: C, D, B, A, E
(C: 20 nM, D: 7.94 nM, B: 2.51 nM, A: 1 nM, E: 0.631 nM)

1: FC(F)(F)c1nnc2n1[C@H]1CCN(Cc3cc4nc(-c5cccc6[nH]ccc56)nc(N5CCOCC5)c4s3)C[C@@H]1CC2 (relative stereo)
2: Cc1nnc2n1[C@H]1CCN(Cc3cc4nc(-c5cccc6[nH]ncc56)nc(N5CCOCC5)c4s3)C[C@@H]1CC2 (relative stereo)
Data request: Which one would you say has the larger IC50 value: 1 , or 2 ? Write down the label of the entry you select.
Data returned: 2
(2: 3.98 nM, 1: 1.58 nM)

1: Oc1cccc(-c2nc(N3CCOCC3)c3sc(CN4CCC(n5cnnc5C(F)(F)F)CC4)cc3n2)c1
2: Cc1nncn1C1CCN(Cc2cc3nc(-c4cccc5[nH]ccc45)nc(N4CCOCC4)c3s2)CC1
3: Cc1nncn1C1CCN(Cc2cc3nc(-c4cccc5[nH]ncc45)nc(N4CCOCC4)c3s2)CC1
Data request: Your job: order these 3 records by IC50, ascending. Put the labels in the order asked and list them.
Data returned: 1, 2, 3
